- measured_on: Nuclear factor erythroid 2-related factor 2 (Homo sapiens)
- Sequence (whole entry): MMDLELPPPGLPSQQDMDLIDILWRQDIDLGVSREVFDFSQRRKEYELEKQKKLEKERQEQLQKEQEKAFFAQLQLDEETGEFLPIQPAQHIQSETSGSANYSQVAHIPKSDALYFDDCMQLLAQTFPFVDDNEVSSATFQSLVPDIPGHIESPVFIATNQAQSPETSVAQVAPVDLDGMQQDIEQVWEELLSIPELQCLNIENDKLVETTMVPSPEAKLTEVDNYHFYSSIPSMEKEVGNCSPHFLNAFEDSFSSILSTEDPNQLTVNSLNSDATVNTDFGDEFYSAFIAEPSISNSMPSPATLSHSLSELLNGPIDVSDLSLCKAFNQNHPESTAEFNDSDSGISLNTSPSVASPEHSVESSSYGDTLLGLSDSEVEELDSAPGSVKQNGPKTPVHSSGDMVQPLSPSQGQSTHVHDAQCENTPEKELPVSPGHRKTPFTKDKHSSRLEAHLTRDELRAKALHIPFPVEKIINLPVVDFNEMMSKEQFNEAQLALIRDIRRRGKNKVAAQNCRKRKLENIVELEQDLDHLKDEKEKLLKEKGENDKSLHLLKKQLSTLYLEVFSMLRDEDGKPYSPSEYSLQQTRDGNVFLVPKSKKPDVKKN
- test_details: Induction of Nrf2/ARE activation in human Hela cells at 5 uM measured after 12 to 24 hrs by luciferase reporter gene assay relative to control
- Assay type: cell-based
- protocol_conditions: filed as activator, time 12-24 hrs
recorded_metric: fold change (FC)

{"structure_string": "CC(C)(C)c1cc(O)ccc1O", "recorded_metric": "fold change (FC)", "experimental_result": 1.24}

A. c1ccc2cc(CN3CCN(Cc4noc(Cc5c[nH]c6ccccc56)n4)CC3)ccc2c1
B. O=C(/C=C/c1ccc(O)c(O)c1)N1CCN(Cc2noc(Cc3c[nH]c4ccccc34)n2)CC1
Enquiry: Sort A and B by fold change (FC) descending and give the first. Could you answer with the label of the item you picked?
Return: B
(B: 2.96, A: 1.51)

---

- measured_on: UniProt Q16236
- Sequence (whole entry): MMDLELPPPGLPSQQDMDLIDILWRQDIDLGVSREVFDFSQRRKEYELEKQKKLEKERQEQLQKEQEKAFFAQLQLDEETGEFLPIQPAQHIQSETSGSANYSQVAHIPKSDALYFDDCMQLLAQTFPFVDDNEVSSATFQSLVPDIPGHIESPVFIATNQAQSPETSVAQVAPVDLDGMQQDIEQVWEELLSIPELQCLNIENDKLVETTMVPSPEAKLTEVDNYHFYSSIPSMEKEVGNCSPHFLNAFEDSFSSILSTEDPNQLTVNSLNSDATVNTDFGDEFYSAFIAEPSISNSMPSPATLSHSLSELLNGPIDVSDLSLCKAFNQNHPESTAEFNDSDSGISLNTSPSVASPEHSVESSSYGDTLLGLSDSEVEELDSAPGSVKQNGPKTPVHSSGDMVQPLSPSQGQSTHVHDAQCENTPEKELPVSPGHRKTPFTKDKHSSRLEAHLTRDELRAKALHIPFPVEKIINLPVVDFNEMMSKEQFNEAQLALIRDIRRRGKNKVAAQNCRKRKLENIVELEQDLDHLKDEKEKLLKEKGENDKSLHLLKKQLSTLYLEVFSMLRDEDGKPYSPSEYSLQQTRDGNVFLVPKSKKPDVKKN
- test_details: Induction of Nrf2/ARE activation in human Hela cells at 20 uM measured after 12 to 24 hrs by luciferase reporter gene assay relative to control
- Format: cell-based
- protocol_conditions: filed as activator, time 12-24 hrs
recorded_metric: fold change (FC)

As a guide, the following entries are already answered.
{"structure_string": "CC(C)(C)c1cc(O)ccc1O", "fold change (FC)": 2.78}
{"structure_string": "c1ccc(CN2CCN(Cc3noc(Cc4c[nH]c5ccccc45)n3)CC2)cc1", "fold change (FC)": 2.09}
{"structure_string": "COc1ccc(/C=C/C(=O)N2CCN(Cc3noc(Cc4c[nH]c5ccccc45)n3)CC2)cc1O", "fold change (FC)": 7.41}
{"structure_string": "c1ccc2cc(CN3CCN(Cc4noc(Cc5c[nH]c6ccccc56)n4)CC3)ccc2c1", "fold change (FC)": 2.04}
{"structure_string": "COc1cc(OC)c(OC)cc1/C=C/C(=O)N1CCN(Cc2noc(Cc3c[nH]c4ccccc34)n2)CC1", "fold change (FC)": 5.46}

A. COc1cccc(/C=C/C(=O)N2CCN(Cc3noc(Cc4c[nH]c5ccccc45)n3)CC2)c1
B. COc1cccc(CN2CCN(Cc3noc(Cc4c[nH]c5ccccc45)n3)CC2)c1
Enquiry: Between the entries labeled A and B , whose measured fold change (FC) is lower? Could you answer with the label of the item you picked?
Return: B
(B: 1.47, A: 4.07)

P. O=C(/C=C/c1cccc(O)c1)N1CCN(Cc2noc(Cc3c[nH]c4ccccc34)n2)CC1
Q. COc1ccc(OC)c(/C=C/C(=O)N2CCN(Cc3noc(Cc4c[nH]c5ccccc45)n3)CC2)c1
Enquiry: Sort P and Q by fold change (FC) descending and give the first. Could you answer with the label of the item you picked?
Return: P

a. O=C(c1ccccc1)N1CCN(Cc2noc(Cc3c[nH]c4ccccc34)n2)CC1
b. O=C(/C=C/c1ccc(Cl)cc1)N1CCN(Cc2noc(Cc3c[nH]c4ccccc34)n2)CC1
c. O=C(/C=C/c1cccc(Br)c1)N1CCN(Cc2noc(Cc3c[nH]c4ccccc34)n2)CC1
Enquiry: Arrange these 3 compounds in increasing order of fold change (FC). Please respond by ranking the labels in the order requested.
Return: a, c, b

1. N#Cc1ccc(C(=O)N2CCN(Cc3noc(Cc4c[nH]c5ccccc45)n3)CC2)cc1
2. O=C(/C=C/c1ccc(O)cc1)N1CCN(Cc2noc(Cc3c[nH]c4ccccc34)n2)CC1
Enquiry: Between the entries labeled 1 and 2 , whose measured fold change (FC) is lower? Could you answer with the label of the item you picked?
Return: 1

P. CS(=O)(=O)c1ccc(C(=O)N2CCN(Cc3noc(Cc4c[nH]c5ccccc45)n3)CC2)cc1
Q. Cc1ccc(CN2CCN(Cc3noc(Cc4c[nH]c5ccccc45)n3)CC2)cc1
Enquiry: Sort P and Q by fold change (FC) descending and give the first. Could you answer with the label of the item you picked?
Return: Q

---

- measured_on: Nuclear factor erythroid 2-related factor 2 (Homo sapiens) (UniProt Q16236)
- Sequence (whole entry): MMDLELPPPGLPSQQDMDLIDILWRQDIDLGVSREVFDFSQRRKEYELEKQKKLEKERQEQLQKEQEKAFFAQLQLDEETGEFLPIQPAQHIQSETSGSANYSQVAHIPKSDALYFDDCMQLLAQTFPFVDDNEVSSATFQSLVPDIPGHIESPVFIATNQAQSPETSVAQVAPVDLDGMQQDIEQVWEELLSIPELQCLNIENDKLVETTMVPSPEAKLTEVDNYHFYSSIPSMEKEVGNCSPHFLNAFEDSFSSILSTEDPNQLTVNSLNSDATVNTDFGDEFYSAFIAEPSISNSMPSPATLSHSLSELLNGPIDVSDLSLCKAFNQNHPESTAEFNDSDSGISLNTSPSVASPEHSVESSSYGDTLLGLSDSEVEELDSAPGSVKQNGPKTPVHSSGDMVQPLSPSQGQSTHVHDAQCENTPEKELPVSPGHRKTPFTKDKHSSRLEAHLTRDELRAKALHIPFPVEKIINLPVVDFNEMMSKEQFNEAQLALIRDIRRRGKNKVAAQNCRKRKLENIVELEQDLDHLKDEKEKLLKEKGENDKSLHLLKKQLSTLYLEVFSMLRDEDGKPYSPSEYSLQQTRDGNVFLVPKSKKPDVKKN
- test_details: Induction of Nrf2/ARE activation in human Hela cells at 1 uM measured after 12 to 24 hrs by luciferase reporter gene assay relative to control
- Format: cell-based
- protocol_conditions: filed as activator, time 12-24 hrs
recorded_metric: fold change (FC)

As a guide, the following entries are already answered.
{"structure_string": "Brc1cccc(CN2CCN(Cc3noc(Cc4c[nH]c5ccccc45)n3)CC2)c1", "measured_on": "Nuclear factor erythroid 2-related factor 2 (Homo sapiens) (UniProt Q16236)", "recorded_metric": "fold change (FC)", "experimental_result": 1.12}
{"structure_string": "O=C(/C=C/c1ccccc1)N1CCN(Cc2noc(Cc3c[nH]c4ccccc34)n2)CC1", "measured_on": "Nuclear factor erythroid 2-related factor 2 (Homo sapiens) (UniProt Q16236)", "recorded_metric": "fold change (FC)", "experimental_result": 1.05}
{"structure_string": "O=C(/C=C/c1ccccc1O)N1CCN(Cc2noc(Cc3c[nH]c4ccccc34)n2)CC1", "measured_on": "Nuclear factor erythroid 2-related factor 2 (Homo sapiens) (UniProt Q16236)", "recorded_metric": "fold change (FC)", "experimental_result": 1.2}

1. COc1ccc(/C=C/C(=O)N2CCN(Cc3noc(Cc4c[nH]c5ccccc45)n3)CC2)cc1O
2. COc1cc(/C=C/C(=O)N2CCN(Cc3noc(Cc4c[nH]c5ccccc45)n3)CC2)ccc1O
Enquiry: Sort 1 and 2 by fold change (FC) descending and give the first. Could you answer with the label of the item you picked?
Return: 1
(1: 1.89, 2: 1.29)
